List of EC50 values.
Molecular target: T1, TIGIT on TIGIT-over expressing NFAT-Luc/Jurkat effector cells (GenScript reporter cell line) (UniProt Q495A1 22-244, limits assumed)
T1 sequence (looked up): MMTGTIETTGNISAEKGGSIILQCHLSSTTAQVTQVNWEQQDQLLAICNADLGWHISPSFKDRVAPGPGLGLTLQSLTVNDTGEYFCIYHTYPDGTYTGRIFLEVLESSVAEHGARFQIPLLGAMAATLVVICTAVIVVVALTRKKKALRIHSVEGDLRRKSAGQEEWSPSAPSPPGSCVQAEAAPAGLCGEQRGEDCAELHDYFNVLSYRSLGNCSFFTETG
Assay: cell-based or functional assay
property: EC50

{"columns": ["binder", "property", "reading"],
 "data": [
  ["huTIGIT-6-3 (antibody, human IgG1, kappa, V domains shown, Humanized IgG; also called 6VH6.M6 + 6VL1.M1) VH: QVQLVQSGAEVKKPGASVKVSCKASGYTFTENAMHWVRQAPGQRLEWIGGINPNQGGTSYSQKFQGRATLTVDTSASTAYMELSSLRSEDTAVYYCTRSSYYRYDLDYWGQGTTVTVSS VL: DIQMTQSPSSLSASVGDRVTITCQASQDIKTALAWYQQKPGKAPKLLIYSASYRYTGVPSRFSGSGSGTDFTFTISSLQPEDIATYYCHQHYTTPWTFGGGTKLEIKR", "EC50", "11.1 nM"],
  ["huTIGIT-19-2 (antibody, human IgG1, kappa, V domains shown, Humanized IgG; also called 19VH4.M9 + 19VL1.M7) VH: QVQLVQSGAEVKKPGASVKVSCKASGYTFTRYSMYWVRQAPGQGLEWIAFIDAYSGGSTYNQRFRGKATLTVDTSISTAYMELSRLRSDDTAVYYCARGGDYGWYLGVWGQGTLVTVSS VL: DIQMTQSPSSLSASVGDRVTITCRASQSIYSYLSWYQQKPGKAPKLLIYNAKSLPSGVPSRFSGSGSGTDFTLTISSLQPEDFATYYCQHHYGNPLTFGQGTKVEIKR", "EC50", "2.39 nM"]
]}
